Would you mind telling me the reported GI50 of each entry?
- Test system: SF-539
- test summary: NCI tumour cell line growth inhibition, 48 h
The source made the active and inactive calls. Cut-off read from the data, not from the text of the source: active = GI50 up to about 1.1 µM and inactive = higher.

Task item: Given the molecule CNC(=S)N/N=C(\C)c1nc2cccnc2[nH]1 , what is its reported GI50?
Reply: 27.7 µM (inactive)

Task item: Returns the measured GI50 for the input molecule. Input: CC(C)CCCC(C)[C@H]1CCC(C2C[C@@H](O)[C@@H]3CC(O)[C@@H](O)C[C@]3(CO)C2=O)[C@]1(C)CCO (stereo partly specified)
Reply: 20.9 µM (inactive)

Task item: So what does the record say about GI50 for CC(=O)N1N=C(c2cc(C)ccc2O)CC1c1cccc(Cl)c1 (stereo unspecified) ?
Reply: 19.2 µM (inactive)

Task item: Sample CC(=O)OCCOCn1cnc2c(Cl)nc(Cl)nc21 — what was its GI50?
Reply: > 10 µM (inactive)

Task item: Look up GI50 for this molecule: CC(=O)C(C(C)=O)[C@H]1OC(C)(C)O[C@H]1[C@H]1COC(C)(C)O1
Reply: 18.7 µM (inactive)

Task item: Report GI50 for S=c1nc(N2CCCCC2)ss1 please.
Reply: 18.9 µM (inactive)
